Molecular target: purified Z-AAT protein from human plasma (Homo sapiens (Human), UniProt P01009, E366K)
Sequence (P01009 25-418 E366K limits assumed): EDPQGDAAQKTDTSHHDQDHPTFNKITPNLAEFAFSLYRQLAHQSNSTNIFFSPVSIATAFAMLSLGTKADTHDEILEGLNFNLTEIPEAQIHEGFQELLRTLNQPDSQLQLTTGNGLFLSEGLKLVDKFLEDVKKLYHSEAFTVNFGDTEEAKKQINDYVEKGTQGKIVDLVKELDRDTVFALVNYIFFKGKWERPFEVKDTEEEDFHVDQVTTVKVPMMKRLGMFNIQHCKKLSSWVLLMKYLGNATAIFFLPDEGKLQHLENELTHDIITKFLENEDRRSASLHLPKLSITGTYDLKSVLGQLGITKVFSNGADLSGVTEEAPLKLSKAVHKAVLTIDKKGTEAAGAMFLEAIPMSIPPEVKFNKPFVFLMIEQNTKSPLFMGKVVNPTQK
Assay: Biochemical Assay (Z-AAT Elastase Activity Assay)
Settings: purified Z-AAT pre-incubated with compound 1 hour, then human neutrophil elastase and fluorescent substrate
assay-endpoint: IC50

Here's what some known entries look like.
// IC50 value for Cc1cc(-n2c(C(C)C)c(C(C)CC(=O)O)c3cc(O)ccc32)ccc1F (stereo not drawn) [Compound 176] : > 30 µM

// IC50 value for Cc1cc(-n2c(C3CCOCC3)c([C@H]3CCC[C@@H](CC(=O)O)C3)c3cc(O)ccc32)ccc1F (racemic) [Compound 105] : > 30 µM

// IC50 value for Cc1cc(-n2c(C(C)C)c(/C=C/C(=O)O)c3cc(O)c(F)cc32)ccc1F [Compound 181] : > 5 µM

// IC50 value for Cc1cc(-n2c(C3CCOCC3)c([C@H]3CC[C@H](C(=O)O)CC3)c3cc(O)ccc32)ccc1F [Compound 1] : > 30 µM

// IC50 value for Cc1cc(-n2c(C(C)C)c([C@H]3C[C@@](C(=O)O)(C(F)(F)F)C3)c3cc(O)ccc32)ccc1F [Compound 60] : > 5 µM

// IC50 value for Cc1cc(-n2c(C(C)C)c([C@H]3C[C@@H](C#N)C3)c3cc(O)ccc32)ccc1F [Compound 215] : > 5 µM

Further cases:
// IC50 value for CCC(O)c1c(C#N)c2cc(O)ccc2n1-c1ccnc(C)c1 (stereo not drawn) [Compound 192] : > 30 µM

// IC50 value for Cc1cc(-n2c(C(C)C)c(C#N)c3cc(O)c(F)cc32)ccc1F [Compound 193] : > 30 µM
